The measurements presented in this section are drawn from ChEMBL document CHEMBL2150993.

Each record here notes measured growth inhibition (GI).
# Tested on: CAKI-1
# experiment description: Growth inhibition of human Caki1 cells after 48 hrs by cell counting analysis
# Assay type: functional
# condition set: at 10 µM
Answer format: numeric, % implied, no suffix.

Some solved cases for reference:
>>> measured("Cn1cc(NC(=O)c2cc(NC(=O)CNC(=N)N)cn2C)cc1C(=O)NCCC(=N)N")
28.9
>>> measured("Cc1ccc(-c2csc(NC(=O)CCCl)n2)cc1")
55.6
>>> measured("Cc1ccc(-c2csc(NC(=O)CN3CCN(C)CC3)n2)cc1")
12

Query compound follows.
Any idea what its growth inhibition (GI) is? The compound is CN1CCN(CCC(=O)Nc2nc(-c3ccc(Cl)cc3)cs2)CC1
24.2
